All values here come from PubChem BioAssay AID652017.

# run description: SMARCA2 (BRM) function activators, primary screen, cell-based, luminescence, high throughput (AID 652017);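 note: 0% = vehicle wells and 100% = reference activator wells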
# particulars: MG213 cells, MMTV-luciferase reporter, dexamethasone, overnight; at 9.1 µM
About 3,800 (1%) of roughly 370,000 compounds were called active. Cut-off read from the data, not from the text of the source: active = activation above about 7.8%; inactive = the rest. The sample as a whole holds a higher share of actives than the screen did.
Use one of these outcomes when replying: YES (active), NO (inactive)

molecule=Cc1ccsc1-c1nc(CSCC(=O)NCCN2CCCC2)c(C)o1 assigned_category=YES
molecule="CCCCCCOC(=O)NCC(O)c1ccccc1 (stereo unspecified)" assigned_category=YES
molecule=Cc1cc(-n2cnc(-c3cn(C)nc3C)n2)no1 assigned_category=YES
molecule=O=C(N1CCOCC1)N1CC[C@H]2[C@H](CCCN2Cc2ccc(F)cc2)C1 assigned_category=NO
molecule=Cn1nccc1/C=N\NC(=O)c1ccc(Cl)cc1 assigned_category=NO
molecule=COC(=O)[C@]12C[C@H](CC(=O)N3CCOCC3)C(=O)N(Cc3ccc(Cl)cc3Cl)C1=C[C@H](COCc1ccccc1)O[C@@H]2C assigned_category=NO
molecule=CCc1ccccc1NC(=O)CSc1nnc(-c2cccs2)o1 assigned_category=NO
molecule="CCCc1cc(=O)oc2c(C)c(OC(C)C(=O)NCC(O)c3ccccc3)ccc12 (stereo unspecified)" assigned_category=NO

Request: Lab log entry: `O=C(O)c1ccc(COc2c(F)c(F)cc(F)c2F)o1` — outcome as called in the assay?
Result: YES

Request: Lab log entry: `O=S1(=O)c2ccc(N3CCN(Cc4ccccc4F)CC3)cc2Oc2ccccc2CN1Cc1cn(Cc2ccc(Cl)cc2)nn1` — outcome as called in the assay?
Result: NO

----------
# run description: SMARCA2 (BRM) function activators, primary screen, cell-based, luminescence, high throughput (AID 652017);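 note: 0% = vehicle wells and 100% = reference activator wells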
# particulars: MG213 cells, MMTV-luciferase reporter, dexamethasone, overnight; at 9.1 µM; stronger effect = higher value
About 3,800 (1%) of roughly 370,000 compounds were called active. Many of the other results were omitted from the sample, so actives are more common in it than they were.
Listing of entries alongside the reported activation.

molecule="Cc1nn(C(C)C(=O)NCCC2=CCCCC2)c(=O)c2nn(-c3ccccc3)c(C)c12 (configuration not stated)" reported_result="0.01% (inactive)"
molecule=C=CCOC/C=C/C#CCN(CC=C)Cc1ccc(OC)cc1OC reported_result="7.87% (active)"
molecule="CN(CC(=O)Nc1cccc(F)c1)C(=O)C1CSC2(C)CCC(=O)N12 (configuration not stated)" reported_result="-0.29% (inactive)"
molecule="CC1CC(C)CN(CCC(=O)Nc2ccc3c(c2)CCC3)C1 (configuration not stated)" reported_result="-0.27% (inactive)"
molecule=O=C(CSc1ncnc2c1nnn2Cc1ccc(F)cc1)NC1CCCC1 reported_result="-2.99% (inactive)"

Value of measured activation for the entry `O=C(CSc1nc2ccccc2n1Cc1ccccc1Cl)N/N=C\c1c[nH]c2ccccc12` : -4.04% (inactive)

Value of measured activation for the entry CC(=O)Nc1ccc(S(=O)(=O)NCC2CCC(C(=O)NCCc3ccccc3)CC2)cc1 (configuration not stated) : -3.64% (inactive)

----------
Listing of entries alongside the reported activation.
# run description: SMARCA2 (BRM) function activators, primary screen, cell-based, luminescence, high throughput (AID 652017);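 note: 0% = vehicle wells and 100% = reference activator wells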
# particulars: MG213 cells, MMTV-luciferase reporter, dexamethasone, overnight; at 9.1 µM; stronger effect = higher value
The whole screen tested about 370,000 compounds, of which about 3,800 (1%) were called active. For the sample, actives were picked, then their nearest neighbours and some compounds at random.
Express the result in % but write the number alone.

compound="Cc1ccc(/C=N/NC(=O)C(NC(=O)c2ccccc2)c2n[nH]c(=O)c3ccccc23)cc1 (stereo unspecified)" value_unit=% reported_result=-1.07
compound=Cn1c(SCC(=O)Nc2cccc(NC(=O)c3cccs3)c2)nnc1-c1ccncc1 value_unit=% reported_result=2.18
compound="COc1ccccc1C(=O)NC1CCCCN(C(C)C)C1=O (stereo unspecified)" value_unit=% reported_result=-0.79
compound=Clc1ccc(-n2c(COc3ccccc3)nnc2SCc2nc3ccccc3[nH]2)cc1 value_unit=% reported_result=-4.61

Value of measured activation for the entry `COC1=C[C@H](C(=O)NCCNC(C)=O)[C@H](C)[C@@H](c2ccccc2)CC1=O` : -1.73

Value of measured activation for the entry `COC(=O)[C@H](CCSC)NC(=O)Nc1ccc(OC)cc1` : 0.38

----------
Listing of entries alongside the reported activation.
# run description: SMARCA2 (BRM) function activators, primary screen, cell-based, luminescence, high throughput (AID 652017);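 note: 0% = vehicle wells and 100% = reference activator wells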
# particulars: MG213 cells, MMTV-luciferase reporter, dexamethasone, overnight; at 9.1 µM; stronger effect = higher value
Among all 370,000 compounds or so, about 3,800 (1%) were called active. Shown is part of a subset that was picked to be rich in actives.

Reference set, count: 2
structure_as_smiles=COC[C@@H]1CCCN1c1ccc2c(c1)O[C@H](C)CCN(C1CC1)S2(=O)=O measure=activation reported_result="-0.54% (inactive)"
structure_as_smiles=O=C(CSc1nnc(COc2ccccc2)n1Cc1ccco1)c1ccc2ccccc2c1 measure=activation reported_result="-6.31% (inactive)"

Turning now to a further compound:
Value of measured activation for the entry `Cc1ccc(C(=O)Nc2nc3ccc(Cl)cc3s2)o1` : 12.3% (active)

----------
# run description: SMARCA2 (BRM) function activators, primary screen, cell-based, luminescence, high throughput (AID 652017);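 note: 0% = vehicle wells and 100% = reference activator wells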
# particulars: MG213 cells, MMTV-luciferase reporter, dexamethasone, overnight; at 9.1 µM
Hit rate of the full screen: of about 370,000 compounds, about 3,800 (1%) were called active. Rule as the data show it: active = activation above about 7.8%; inactive = the rest. Many of the other results were omitted from the sample, so actives are more common in it than they were.
Use one of these outcomes when replying: label 1 = active, label 0 = inactive

Reference set (2 entries):
compound=O=C(CNS(=O)(=O)c1ccccc1F)N1CCN(c2ccccn2)CC1 assigned_category="label 0"
compound=Cn1sc(=O)c2cc(S(=O)(=O)NC3CC3)ccc21 assigned_category="label 1"

Request: Lab log entry: CCOC(=O)C1=C(c2ccccc2)NC(=O)NC1c1cc(OC)c(OC)cc1OC (stereo not drawn) — outcome as called in the assay?
Result: label 0

Request: Lab log entry: `CC1CCN(CC(=O)c2c[nH]c3ccccc23)CC1` — outcome as called in the assay?
Result: label 0

----------
Listing of entries alongside the reported activation.
# run description: SMARCA2 (BRM) function activators, primary screen, cell-based, luminescence, high throughput (AID 652017);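 note: 0% = vehicle wells and 100% = reference activator wells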
# particulars: MG213 cells, MMTV-luciferase reporter, dexamethasone, overnight; at 9.1 µM; stronger effect = higher value
Out of some 370,000 compounds screened, about 3,800 (1%) were called active. This is one part of a sample in which actives are shown more often than they occur.
Express the result in % but write the number alone.

compound=CC(C)(C)c1ccc(NC(=O)NCc2ccco2)cc1 reported_result=8.76
compound=Cc1ccc(NC(=S)NNC(=O)CSc2nnc(SCc3ccccc3Cl)s2)cc1 reported_result=-6.06
compound=COc1ccccc1C1=Nc2cccc3cccc(c23)N1 reported_result=8.11
compound=COc1ccccc1OCCNC(=O)CCNC(=O)c1ccccc1Cl reported_result=0.37
compound="CC(CCN1CCC(C(O)(c2ccccc2)c2ccccc2)CC1)Oc1ccc([N+](=O)[O-])cc1Cl (stereo not given)" reported_result=5.01

Value of measured activation for the entry CCCCCN1CCCCC(NC(=O)C(C)CCC)C1=O (stereo not given) : -0.09

Value of measured activation for the entry `COc1cccc(OCCOc2cccc(/C=N/n3cnnc3)c2)c1` : 10.1

Value of measured activation for the entry N[C@@H](Cc1ccccc1)C(=O)N1CCC[C@@H]1C(=O)N1CCC2CCN(S(=O)(=O)c3ccccc3)CC21 (stereo not given in full) : -1.95

Value of measured activation for the entry `CC(=O)Nc1ccc(Nc2c3ccccc3nc3ccccc23)cc1` : 8.59

Value of measured activation for the entry `CCC(=O)NC(=Nc1nc2ccccc2s1)NC(=O)CC` : 7.9

----------
# run description: SMARCA2 (BRM) function activators, primary screen, cell-based, luminescence, high throughput (AID 652017);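 note: 0% = vehicle wells and 100% = reference activator wells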
# particulars: MG213 cells, MMTV-luciferase reporter, dexamethasone, overnight; at 9.1 µM; stronger effect = higher value
Screen size: about 370,000 compounds; about 3,800 (1%) were called active. The sample as a whole holds a higher share of actives than the screen did.
measure: activation (%)
Express the result in % but write the number alone.

Reference set, count: 3
compound=Cc1ccc(N/C=C/C(=O)c2ccccc2)cc1C reported_result=14.5
compound=Cc1cccc(C(=O)Nc2ccc(C(=O)/C=C/c3cccs3)cc2)c1 reported_result=7.01
compound=O=C(Cn1ncc2c3ccccc3n(Cc3ccccc3)c2c1=O)NCc1ccccn1 reported_result=-0.48

Value of measured activation for the entry `COC(=O)C[C@H]1CC[C@H]2[C@H](COc3ccc(NC(=O)C4CC4)cc3C(=O)N2C)O1` : -0.29

Value of measured activation for the entry `O=C(Nc1ccc(OC(F)(F)F)cc1)c1ccc2c(c1)no[n+]2[O-]` : -7.81

Value of measured activation for the entry `COCC(=O)N[C@@H]1C[C@@H]2O[C@@H](CO)CC[C@@H]2O[C@@H]1CCc1ccc(-c2ccccc2)cc1` : 0.63

Value of measured activation for the entry `CC(C)CC(=O)Nc1nnc(S(=O)(=O)N(C)c2ccc(Cl)cc2)s1` : 1.27

Value of measured activation for the entry `Cc1cccc(NC(=O)C[C@H]2CC[C@H]3[C@@H](COc4ccc(NC(=O)Nc5ccccc5)cc4C(=O)N3C)O2)c1` : 2.72

Value of measured activation for the entry `Cc1cccc(-n2nc3c(c2NC(=O)c2cc4ccccc4o2)CS(=O)(=O)C3)c1` : -1.69

Value of measured activation for the entry CCC1CCC/C1=N\NC(=O)c1ccc(Cl)cc1 (stereo unspecified) : 10.3

Value of measured activation for the entry O=C1Nc2ccccc2OC1CC(=O)N1CCCCCCC1 (stereo unspecified) : 0.95
